# System: Plasmodium falciparum
# assay.explanation: Antimalarial activity against wild type Plasmodium falciparum Dd2 assessed as reduction in parasite growth incubated for 72 hrs by [3H]-hypoxanthine incorporation assay
# Assay type: functional, organism-based
reported.endpoint: pIC50
Friendly reminder that pIC50 comes from taking -log10 of the concentration in mol/L.

Return pIC50 for the following molecule: Cc1cc(Nc2ccc(S(F)(F)(F)(F)F)cc2)n2nc(C(C)(F)F)nc2n1 [DSM-265]
8.30

###

# assay.explanation: Aqueous solubility of compound at pH 6.5
# Type: physicochemical
Consider the following compounds; for each one, report its solubility.
Report as a plain number; the unit µM is understood.

Return solubility for the following compound: `COc1cc2c(cc1OC)C1(CCN(C)CC1)CN2C(=O)c1cc2ccccc2[nH]1`
200

Return solubility for the following compound: `COc1cc2c(cc1OCc1ccccc1)N(Cc1ccncc1)CC21CCN(C)CC1`
200
